Molecular target: human CYP4F2 (Homo sapiens (Human))
Sequence (P78329 5-520): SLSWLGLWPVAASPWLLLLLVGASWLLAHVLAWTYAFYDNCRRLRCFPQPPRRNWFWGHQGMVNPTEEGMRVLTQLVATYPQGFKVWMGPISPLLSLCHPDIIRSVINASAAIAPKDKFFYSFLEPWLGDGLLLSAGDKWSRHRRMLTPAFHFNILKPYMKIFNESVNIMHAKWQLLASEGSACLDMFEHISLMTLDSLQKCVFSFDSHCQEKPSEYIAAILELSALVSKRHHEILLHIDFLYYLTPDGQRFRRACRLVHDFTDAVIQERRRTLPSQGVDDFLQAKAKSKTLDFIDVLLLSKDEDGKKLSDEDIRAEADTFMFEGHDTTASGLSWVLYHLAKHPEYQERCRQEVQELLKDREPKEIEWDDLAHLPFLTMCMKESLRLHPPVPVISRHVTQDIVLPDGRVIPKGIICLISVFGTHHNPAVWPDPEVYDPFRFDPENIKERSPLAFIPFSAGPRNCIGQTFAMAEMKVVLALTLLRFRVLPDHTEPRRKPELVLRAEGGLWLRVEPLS
Experiment: Inhibition test against 20-HETE producing enzyme CYP4F2 (luciferine derivative, luminescence)
Format: biochemical
Conditions: human CYP4F2, luciferine derivative, luminescence
Description: (1) Inhibition Test for Each Compound of the Present Invention Against 20-HETE Producing Enzymes (CYP4F2 and CYP4A11) […] A: Luminescence value with addition of compound B: Luminescence value without addition of compound and enzyme
pIC50: −log10 of the molar value.
readout.name: pIC50

Observe how each entry below is paired with its result.
compound | pIC50
O=C(O)c1ccc(CCCCCOc2ccc(-c3ccn[nH]3)nc2)cn1 | 6.59
O=C(O)[C@H]1CCc2ccc(CCOc3ccc(-c4ccn[nH]4)nc3)cc2O1 | 6.51
O=C(N[C@H]1C[C@@H](C(=O)O)C1)c1cccc(COc2ccc(-c3ccn[nH]3)nc2)c1 | 5.21
O=C(O)[C@@H]1CCCN(S(=O)(=O)c2cccc(COc3ccc(-c4ccn[nH]4)nc3)c2)C1 | 7.07

P: O=C(CCc1cccc(COc2ccc(-c3ccn[nH]3)nc2)c1)NC[C@@H]1CCCO1
Q: CC(C)(Oc1cccc(CCCOc2ccc(-c3ccn[nH]3)nc2)n1)C(=O)O
R: CC(OCCCCCCCOc1ccc(-c2ccn[nH]2)nc1)C(=O)O (centres unmarked)
S: O=C(CCc1cccc(COc2ccc(-c3ccn[nH]3)nc2)c1)N1CC(F)C1
(Q) Kindly order the items shown according to pIC50, from the highest value down. I would appreciate it if you listed the labels in the requested order.
(A) P, S, R, Q

* * *

target: UniProt:P78329; experiment: Inhibition test against 20-HETE producing enzyme CYP4F2 (luciferine derivative, luminescence); format: biochemical; conditions: E. coli membrane fraction expressing human CYP4F2, 2.5 μM luciferine derivative, room temperature 60 minutes
pIC50: −log10 of the molar value.
readout.name: pIC50

Known pIC50 results, listed for orientation:
smiles.record | tested.on | recorded.value
O=C(O)Cc1cccc(COc2ccc(-c3ccn[nH]3)nc2)n1 | UniProt:P78329 | 6.17
O=C(O)C1(CCCCCCCOc2ccc(-c3ccn[nH]3)nc2)CCCC1 | UniProt:P78329 | 7.72
O=C(O)CCc1ccccc1COc1ccc(-c2ccn[nH]2)nc1 | UniProt:P78329 | 4.80
CCCNC(=O)c1cccc(COc2ccc(-c3ccn[nH]3)nc2)c1 | UniProt:P78329 | 7.60

P: O=C(CCc1cccc(COc2ccc(-c3ccn[nH]3)nc2)c1)N1CCCC1
Q: CC(C)(CCCS(=O)(=O)c1cccc(COc2ccc(-c3ccn[nH]3)nc2)c1)C(=O)O
R: O=C(O)Cn1ccc(CCCCOc2ccc(-c3ccn[nH]3)nc2)cc1=O
S: NC(=O)c1cc(COc2ccc(-c3[nH]ncc3C(F)F)nc2)ccn1
T: CNC(=O)CCc1cccc(COc2ccc(-c3ccn[nH]3)nc2)c1
(Q) Ascending by pIC50, please: list the compounds accordingly. Give the labels in the order requested.
(A) S, R, T, Q, P
(S: 5.57, R: 5.85, T: 7.15, Q: 7.49, P: 7.82)

* * *

biological target: UniProt:Q02928; experiment: Inhibition test against 20-HETE producing enzyme CYP4A11 (luciferine derivative, luminescence); assay type: biochemical; details: E. coli membrane fraction expressing human CYP4A11, 60 μM luciferine derivative, room temperature 60 minutes
Sequence (Q02928 5-519): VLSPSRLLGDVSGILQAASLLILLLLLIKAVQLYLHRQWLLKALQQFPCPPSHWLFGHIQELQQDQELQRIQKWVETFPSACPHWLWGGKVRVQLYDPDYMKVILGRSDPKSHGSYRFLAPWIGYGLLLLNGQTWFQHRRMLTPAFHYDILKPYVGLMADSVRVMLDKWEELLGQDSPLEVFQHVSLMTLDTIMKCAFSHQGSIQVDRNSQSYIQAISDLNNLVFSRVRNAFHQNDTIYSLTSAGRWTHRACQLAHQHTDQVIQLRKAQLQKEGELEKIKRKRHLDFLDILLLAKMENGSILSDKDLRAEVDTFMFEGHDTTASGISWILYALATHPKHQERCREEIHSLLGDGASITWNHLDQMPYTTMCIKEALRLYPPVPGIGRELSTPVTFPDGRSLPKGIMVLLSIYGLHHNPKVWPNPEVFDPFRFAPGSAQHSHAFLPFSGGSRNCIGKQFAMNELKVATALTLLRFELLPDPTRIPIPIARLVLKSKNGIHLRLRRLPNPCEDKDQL
readout.name: IC50 (nM)

Past entries and their recorded results:
compound | tested.on | unit.label | IC50
O=C(O)Cn1ccc(-c2cccc(COc3ccc(-c4ccn[nH]4)nc3)c2)cc1=O | UniProt:Q02928 | nM | 86
Cc1cc(COc2ccc(-c3ccn[nH]3)nc2)ccc1C(=O)O | UniProt:Q02928 | nM | 33
O=C(O)Cn1ccc(CCCCOc2ccc(-c3ccn[nH]3)nc2)cc1=O | UniProt:Q02928 | nM | 530
CC(C)(O)CS(=O)(=O)c1cccc(COc2ccc(-c3ccn[nH]3)nc2)c1 | UniProt:Q02928 | nM | 82
CC(C)(CCCCCOc1ccc(-c2ccn[nH]2)nc1)C(=O)O | UniProt:Q02928 | nM | 46
O=C(O)c1cccc(CCCOc2ccc(-c3ccn[nH]3)nc2)n1 | UniProt:Q02928 | nM | 650

1: O=C(O)CCCCCCOc1ccc(-c2ccn[nH]2)nc1
2: OC(c1ccc(COc2ccc(-c3ccn[nH]3)nc2)cc1)C(F)F (stereo not drawn)
(Q) Hey, which is lower on measured IC50, 1 or 2 ? # answer = label of selected item
(A) 1
(1: 76 nM, 2: 1800 nM)

P: OCc1ccc(COc2ccc(-c3ccn[nH]3)nc2)cc1
Q: O=C(O)Cc1ccc(CCCOc2ccc(-c3ccn[nH]3)nc2)cc1
R: O=C(O)c1cccc(S(=O)(=O)N2CCC[C@@H](COc3ccc(-c4ccn[nH]4)nc3)C2)c1
S: Oc1cccc(COc2ccc(-c3ccn[nH]3)nc2)c1
(Q) Ascending by IC50, please. # list labels per requested ordering
(A) R, Q, S, P

A: O=C(O)C1(OCCOCCCCOc2ccc(-c3ccn[nH]3)nc2)CCCC1
B: Oc1cc(CCCOc2ccc(-c3ccn[nH]3)nc2)cc(F)c1F
C: O=C(O)/C=C/c1cccc(COc2ccc(-c3ccn[nH]3)nc2)c1
D: O=C(O)Cc1cccc(COc2ccc(-c3ccns3)nc2)c1
E: NS(=O)(=O)c1ccc(C(=O)N2CCC[C@@H](COc3ccc(-c4ccn[nH]4)nc3)C2)cc1
(Q) Ascending by IC50, please: list the compounds accordingly. Answer format: the labels, ordered as requested.
(A) D, C, B, A, E
